B1: glmS ribozyme (parent)
chain: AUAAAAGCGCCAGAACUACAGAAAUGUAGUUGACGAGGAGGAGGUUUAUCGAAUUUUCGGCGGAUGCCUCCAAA

variants of: B1; experiment: self-cleavage kobs at 40 uM GlcN6P; higher = faster cleavage; RNA array; conditions: with glucosamine-6-phosphate
This sample holds only a part of the variants without activity.
Result type: self-cleavage kobs at 40 uM GlcN6P

Data request: Name the recorded self-cleavage kobs at 40 uM GlcN6P for C11G A36C U55C .
Data returned: < 1e-05 s⁻¹

Data request: Please do the same for A14U A15G A53G as well.
Data returned: 0.000126 s⁻¹

Data request: Please do the same for C8G G29U as well.
Data returned: < 1e-05 s⁻¹

Data request: Please do the same for G29A A36U A39G G41U C67G as well.
Data returned: < 1e-05 s⁻¹

Data request: Please do the same for A14U G35U G44C as well.
Data returned: < 1e-05 s⁻¹

Data request: Please do the same for G44C C68A as well.
Data returned: < 1e-05 s⁻¹

Data request: Please do the same for C71G as well.
Data returned: 0.000157 s⁻¹
